- Tested on: Streptococcus pyogenes
- PROTOCOL_DETAILS: Antibacterial activity against Streptococcus pyogenes isolate 3 by agar dilution method
- Type: functional
MIC listing for selected compounds.

SMILES_NOTATION: CC[C@H]1OC(=O)[C@H](C)C(=O)[C@H](C)[C@@H](O[C@@H]2O[C@H](C)C[C@H](N(C)C)[C@H]2O)[C@](C)(OC)C[C@@H](C)/C(=N\OC/C=C/c2cccs2)[C@H](C)[C@@H](O)[C@]1(C)O
UNIT_DESCRIPTOR: µg/mL
MIC: 0.06
//
SMILES_NOTATION: CC[C@H]1OC(=O)[C@H](C)C(=O)[C@H](C)[C@@H](O[C@@H]2O[C@H](C)C[C@H](N(C)C)[C@H]2O)[C@](C)(OC)C[C@@H](C)/C(=N\OC/C=C/c2cncc3ccccc23)[C@H](C)[C@@H](O)[C@]1(C)O
UNIT_DESCRIPTOR: µg/mL
MIC: 0.25
//
SMILES_NOTATION: CC[C@H]1OC(=O)[C@H](C)C(=O)[C@H](C)[C@@H](O[C@@H]2O[C@H](C)C[C@H](N(C)C)[C@H]2O)[C@](C)(OC)C[C@@H](C)/C(=N\OC/C=C/c2cccc(OC)c2)[C@H](C)[C@@H](O)[C@]1(C)O
UNIT_DESCRIPTOR: µg/mL
MIC: 1
//
SMILES_NOTATION: CC[C@H]1OC(=O)[C@H](C)C(=O)[C@H](C)[C@@H](O[C@@H]2O[C@H](C)C[C@H](N(C)C)[C@H]2O)[C@](C)(OC)C[C@@H](C)/C(=N\OC/C=C/c2ccc3c(c2)CCC3=O)[C@H](C)[C@@H](O)[C@]1(C)O
UNIT_DESCRIPTOR: µg/mL
MIC: 0.25
//
SMILES_NOTATION: CC[C@H]1OC(=O)[C@H](C)C(=O)[C@H](C)[C@@H](O[C@@H]2O[C@H](C)C[C@H](N(C)C)[C@H]2O)[C@](C)(OC)C[C@@H](C)/C(=N\OC/C=C/c2ccc3[nH]ccc3c2)[C@H](C)[C@@H](O)[C@]1(C)O
UNIT_DESCRIPTOR: µg/mL
MIC: 0.25
//
SMILES_NOTATION: CC[C@H]1OC(=O)[C@H](C)C(=O)[C@H](C)[C@@H](O[C@@H]2O[C@H](C)C[C@H](N(C)C)[C@H]2O)[C@](C)(OC)C[C@@H](C)/C(=N\OC/C=C/c2cccc(C3OCCO3)c2)[C@H](C)[C@@H](O)[C@]1(C)O
UNIT_DESCRIPTOR: µg/mL
MIC: 0.25
//
SMILES_NOTATION: CC[C@H]1OC(=O)[C@H](C)C(=O)[C@H](C)[C@@H](O[C@@H]2O[C@H](C)C[C@H](N(C)C)[C@H]2O)[C@](C)(OC)C[C@@H](C)/C(=N\OC/C=C/c2ccc(OC)cc2)[C@H](C)[C@@H](O)[C@]1(C)O
UNIT_DESCRIPTOR: µg/mL
MIC: 0.5
//
SMILES_NOTATION: CC[C@H]1OC(=O)[C@H](C)C(=O)[C@H](C)[C@@H](O[C@@H]2O[C@H](C)C[C@H](N(C)C)[C@H]2O)[C@](C)(OC)C[C@@H](C)/C(=N\OC/C=C/c2ccc3c(c2)OCO3)[C@H](C)[C@@H](O)[C@]1(C)O
UNIT_DESCRIPTOR: µg/mL
MIC: 0.25
//
SMILES_NOTATION: CC[C@H]1OC(=O)[C@H](C)C(=O)[C@H](C)[C@@H](O[C@@H]2O[C@H](C)C[C@H](N(C)C)[C@H]2O)[C@](C)(OC)C[C@@H](C)/C(=N\OC/C=C/c2cccnc2)[C@H](C)[C@@H](O)[C@]1(C)O
UNIT_DESCRIPTOR: µg/mL
MIC: 0.06
//
SMILES_NOTATION: CC[C@H]1OC(=O)[C@H](C)C(=O)[C@H](C)[C@@H](O[C@@H]2O[C@H](C)C[C@H](N(C)C)[C@H]2O)[C@](C)(OC)C[C@@H](C)/C(=N\OC/C=C/c2cncnc2)[C@H](C)[C@@H](O)[C@]1(C)O
UNIT_DESCRIPTOR: µg/mL
MIC: 0.25
//
SMILES_NOTATION: CC[C@H]1OC(=O)[C@H](C)C(=O)[C@H](C)[C@@H](O[C@@H]2O[C@H](C)C[C@H](N(C)C)[C@H]2O)[C@](C)(OC)C[C@@H](C)/C(=N\OC/C=C/c2ccc(OC)c(OC)c2)[C@H](C)[C@@H](O)[C@]1(C)O
UNIT_DESCRIPTOR: µg/mL
MIC: 0.25
//
SMILES_NOTATION: CC[C@H]1OC(=O)[C@H](C)C(=O)[C@H](C)[C@@H](O[C@@H]2O[C@H](C)C[C@H](N(C)C)[C@H]2O)[C@](C)(OC)C[C@@H](C)/C(=N\OC/C=C/c2cnc3ccccc3c2)[C@H](C)[C@@H](O)[C@]1(C)O
UNIT_DESCRIPTOR: µg/mL
MIC: 0.06
